Origin of the recorded values: ChEMBL document CHEMBL1151705

Recorded MIC, one value per entry.
system: Streptococcus pyogenes; test: Antimicrobial activity against drug-susceptible Streptococcus pyogenes 1 after 20 hrs by agar dilution method; type: functional
Give a bare numeral; the unit µg/mL is implied.

In the examples that follow, each entry is paired with its recorded MIC.
INSERT INTO measurements (molecule, recorded_endpoint, reported_measurement) VALUES
  ('CCOC(=O)[C@H]1[C@H](C)O[C@@H](O[C@H]2[C@H](N(C)C)[C@@H](O)[C@H](O[C@H]3[C@@H](CC=O)C[C@@H](C)[C@@H](O)CN(CCCCc4ccccc4)CCC(C)NC(=O)C[C@@H](OC(=O)CC)[C@@H]3OC)O[C@@H]2C)C[C@@]1(C)OC(C)=O (stereo in doubt; form 2)', 'MIC', 0.06),
  ('CCOC(=O)[C@H]1[C@H](C)O[C@@H](O[C@H]2[C@H](N(C)C)[C@@H](O)[C@H](O[C@H]3[C@@H](CC=O)C[C@@H](C)[C@@H](O)CN(C)CC(/C=C/Cc4cnc5ccccc5c4)CCOC(=O)C[C@@H](OC(=O)CC)[C@@H]3OC)O[C@@H]2C)C[C@@]1(C)O (stereo in doubt; form 2)', 'MIC', 0.13);

Alright, here's another molecule for you.
Give its MIC value. Item: CCOC(=O)[C@H]1[C@H](C)O[C@@H](O[C@H]2[C@H](N(C)C)[C@@H](O)[C@H](O[C@H]3[C@@H](CC=O)C[C@@H](C)[C@@H](O)CN(C)CCC(CCCc4cnc5ccccc5c4)NC(=O)C[C@@H](OC(=O)CC)[C@@H]3OC)O[C@@H]2C)C[C@@]1(C)O (stereo in doubt)
0.25
